Each recorded value in this set is attributed to patent US20220073617A1.

molecular target: T1, monovalent hVISTA-ECD (human VISTA extracellular domain with His tail) (human, UniProt Q9H7M9 33-193); test: SPR, pH 7.4
T1 construct: analyte flowed over captured antibody; also called huVISTA-His
T1 sequence (Q9H7M9 other isoform, or with tags, fused parts or gaps limits assumed): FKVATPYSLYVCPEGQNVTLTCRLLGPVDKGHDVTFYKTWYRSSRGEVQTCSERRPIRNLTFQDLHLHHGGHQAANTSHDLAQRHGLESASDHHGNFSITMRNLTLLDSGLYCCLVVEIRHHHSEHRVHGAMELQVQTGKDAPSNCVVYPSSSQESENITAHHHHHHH
Quick reference for log10 koff among some binders
Please note: log10 values; quantity koff; unit s⁻¹.

Binder	Measured Result
P1-064494 (41F11_Vk_A25EA64G) (antibody, V domains shown, also called P1-064494-1) VH: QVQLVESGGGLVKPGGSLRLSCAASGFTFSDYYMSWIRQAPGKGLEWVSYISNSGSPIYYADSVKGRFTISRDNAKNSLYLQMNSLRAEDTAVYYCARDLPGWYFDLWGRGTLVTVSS VL: EIVLTQSPATLSLSPGERATLSCRESQSVSSYLAWYQQKPGQAPRLLIYDASNRATGIPARFSGSGSGTDFTLTISSLEPEDFAVYYCQQRNNWPRTFGQGTKVEIK	-2.68

## Input Look up log10 koff: P1-065320 (41F11_VH_L96EF100aG VK_A64G) (antibody, V domains shown) VH: QVQLVESGGGLVKPGGSLRLSCAASGFTFSDYYMSWIRQAPGKGLEWVSYISNSGSPIYYADSVKGRFTISRDNAKNSLYLQMNSLRAEDTAVYYCARDEPGWYGDLWGRGTLVTVSS VL: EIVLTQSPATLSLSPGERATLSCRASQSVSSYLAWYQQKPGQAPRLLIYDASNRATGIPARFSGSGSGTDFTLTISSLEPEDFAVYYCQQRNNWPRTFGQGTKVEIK
## Output -1.45

## Input Also check P1-064486 (41F11_VH_F100aG) (antibody, V domains shown, Kabat positions; also called P1-064486-1) VH: QVQLVESGGGLVKPGGSLRLSCAASGFTFSDYYMSWIRQAPGKGLEWVSYISNSGSPIYYADSVKGRFTISRDNAKNSLYLQMNSLRAEDTAVYYCARDLPGWYGDLWGRGTLVTVSS VL: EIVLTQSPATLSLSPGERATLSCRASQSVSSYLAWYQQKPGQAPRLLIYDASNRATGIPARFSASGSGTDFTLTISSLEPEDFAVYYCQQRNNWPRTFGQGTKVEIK
## Output -2.47

## Input Same again, this time with P1-064528 (41F11_VH_D31E/Y50W/S55E/L96E/Y100E) (antibody, V domains shown, Kabat positions; also called P1-064528-1) VH: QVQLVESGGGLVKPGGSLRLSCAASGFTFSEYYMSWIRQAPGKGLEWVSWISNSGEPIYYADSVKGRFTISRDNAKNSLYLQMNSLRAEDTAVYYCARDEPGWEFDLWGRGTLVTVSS VL: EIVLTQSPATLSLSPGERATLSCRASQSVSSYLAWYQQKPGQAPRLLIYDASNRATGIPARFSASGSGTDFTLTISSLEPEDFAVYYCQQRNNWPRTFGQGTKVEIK
## Output -3.64

## Input # repeat for P1-061528 (41F11 NGS mut VK_A64G/R91A) (antibody, V domains shown, also called P1-061528-2) VH: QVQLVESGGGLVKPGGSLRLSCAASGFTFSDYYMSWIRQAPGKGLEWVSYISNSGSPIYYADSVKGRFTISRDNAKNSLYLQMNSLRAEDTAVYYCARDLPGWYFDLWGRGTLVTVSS VL: EIVLTQSPATLSLSPGERATLSCRASQSVSSYLAWYQQKPGQAPRLLIYDASNRATGIPARFSGSGSGTDFTLTISSLEPEDFAVYYCQQANNWPRTFGQGTKVEIK
## Output -3.72

## Input Then what about the binder P1-064472 (41F11_VH_F27E) (antibody, V domains shown, Kabat positions; also called P1-064472-1) VH: QVQLVESGGGLVKPGGSLRLSCAASGETFSDYYMSWIRQAPGKGLEWVSYISNSGSPIYYADSVKGRFTISRDNAKNSLYLQMNSLRAEDTAVYYCARDLPGWYFDLWGRGTLVTVSS VL: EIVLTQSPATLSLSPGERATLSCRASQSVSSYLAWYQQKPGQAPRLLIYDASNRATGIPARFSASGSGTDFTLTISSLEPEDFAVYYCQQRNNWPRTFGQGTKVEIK ?
## Output -3.01
